%Inh values for the compounds below.
Tested on: RIPK4
condition_parameters: concentration: 1 μM, replicates: in singlicate; n = 1;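 further: KINOMEscan kinase panel screen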
Quick reminder: number only, in %, skip the unit.

Worked examples follow.
1. Cc1nnc(-c2ccc3ncc(-c4ccc(S(C)=O)cc4)n3c2)o1 (centres unmarked) :: 24
2. Fc1ccc(-c2nn3c(OCC(F)(F)F)cccc3c2-c2ccncc2)cc1 :: 0

Task: API: value(readout=%Inh, system=RIPK4) for record Cc1nnc(-c2ccc3occ(-c4ccc(C(C)O)cc4)c3c2)o1 (centres unmarked)
Result: 0

Task: Form field: %Inh recorded for "COC(=O)Nc1nc2cc(Oc3ccc(NC(=O)Nc4cc(F)ccc4F)cc3)ccc2[nH]1.Cl" with RIPK4 (enter value)
Result: 8

Task: Observed %Inh on RIPK4 for "CCCCCc1nc2c(N)ncnc2n1CCCCC" , please.
Result: 7

---

Tested on: TAOK3
condition_parameters: concentration: 1 μM, replicates: in singlicate; n = 1
Let's look at some molecules and their measured %Inh.
The response must be a number in % with no trailing unit.

As a guide, the following entries are already answered.
1. CSc1ccc(-c2cc3ncnc(SCC(=O)O)c3s2)cc1 :: 0
2. Cc1cccc(Cn2ccn3c(=O)cc(N4CCOCC4)nc23)c1 :: 0
3. Cc1nnc(-c2ccc3ncc(-c4ccc(S(C)=O)cc4)n3c2)o1 (stereo not shown) :: 0
4. c1ccc(-c2cc(-c3c[nH]nc3-c3ccccn3)ccn2)cc1 :: 0
5. c1ccc(-c2n[nH]cc2-c2ccnc3ccccc23)nc1 :: 0
6. Fc1ccc(-c2ncn(CCCN3CCOCC3)c2-c2ccccn2)cc1 :: 0
7. Cl.Nc1ncnc2occ(-c3ccc(NC(=O)Nc4cc(C(F)(F)F)ccc4F)cc3)c12 :: 17
8. CC(C)(C)n1cnc2c(N)ncnc21 :: 0
9. O=c1cc(N2CCOCC2)nc2n(Cc3cccc4ccccc34)ccn12 :: 0
10. O=c1cc(N2CCOCC2)nc2n(Cc3cccc(Cl)c3Cl)c(C3CC3)nn12 :: 0

Task: Record request: %Inh value, item "O=C1NC(=O)C(N2CCc3ccccc32)=C1c1cccc(Cl)c1"
Result: 0

Task: Need %Inh, item "O=c1cc(N2CCOCC2)nc2n(Cc3cccc(C(F)(F)F)c3)ccn12"
Result: 0

Task: Looking for the measured %Inh of "Cc1ccc(NC(=O)c2ccnc(N3CCN(C)CC3)c2)cc1-c1ccc(C(=O)NCC2CC2)cc1" , can you help?
Result: 0

Task: Quick one: %Inh for "NS(=O)(=O)c1cccc(-c2ccc3ncc(N4CCOCC4)nc3c2)c1" ?
Result: 4

Task: Give its %Inh value. Item: "CNc1ncnc2[nH]ncc12"
Result: 0

Task: # %Inh lookup, item "Cc1cccc(-c2nc(Nc3ccc4ncsc4c3)c3ccccc3n2)n1"
Result: 6

---

Tested on: CAMK1D
condition_parameters: concentration: 1 μM, replicates: in singlicate; n = 1
Could you please mark y for values of %Inh below 10% and n for values at or above it?

1) Cc1cccc(-c2nc(Nc3ccc4ncsc4c3)c3ccccc3n2)n1 :: n

Task: %Inh under 10%? Item: "CC(C)Oc1ccc2c(-c3ccnc(Nc4ccc(N5CCN(C)CC5)cc4)n3)cnn2n1"
Result: n

Task: Just wondering, is %Inh of "Cc1cccc(Cn2ccn3c(=O)cc(N4CCOCC4)nc23)c1" below 10%?
Result: n

Task: Hi there! Is %Inh for "O=c1cc(N2CCOCC2)nc2n(Cc3cccc4ccccc34)ccn12" below 10%, do you know?
Result: n

Task: Lab note: confirm whether the reported %Inh for this compound is below 10%, equality not counting. compound: "Fc1ccc(-c2ncn(CCCN3CCOCC3)c2-c2ccccn2)cc1"
Result: y

Task: Would you kindly verify if %Inh of "COc1cc2c(cc1OC[C@@H](O)CO)ncc1c3ccc(C#N)cc3[nH]c21" is strictly less than 10%?
Result: y

Task: Dear colleague, could you confirm whether %Inh of "COc1cc2ncn(-c3cc(OCc4sccc4Cl)c(C(N)=O)s3)c2cc1OC" falls below 10%? Thanks.
Result: y

Just for reference, paper PMC5540273 is where these values come from.
